# system.name: human ApoC3 (human)
# Sequence (chain, as listed by the source): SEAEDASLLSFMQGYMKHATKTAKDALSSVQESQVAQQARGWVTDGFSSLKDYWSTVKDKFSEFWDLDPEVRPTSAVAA
# method.summary: SPR pH 7.4
value.type: Kd (nM)
API: value field is a number in nM; no unit string.

binder="5E5VH12_VL8 IgG1 (antibody, V domains shown) VH: QLQLVESGGGLVQPGGSLRLSCAASGFTFGTYSMRWVRQVPRKALEWVSSISTDGGGTAYRDSVKGRFTISRDNAKNTLYLQMNNLKPEDTAIYYCVIHGYSDWGQGTQVTVSS VL: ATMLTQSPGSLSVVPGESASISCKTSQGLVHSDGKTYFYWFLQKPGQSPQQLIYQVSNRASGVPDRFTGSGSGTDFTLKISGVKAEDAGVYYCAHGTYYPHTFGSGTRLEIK" experimental_result=0.609
binder="5E5VH12_VLWT IgG1 (antibody, V domains shown) VH: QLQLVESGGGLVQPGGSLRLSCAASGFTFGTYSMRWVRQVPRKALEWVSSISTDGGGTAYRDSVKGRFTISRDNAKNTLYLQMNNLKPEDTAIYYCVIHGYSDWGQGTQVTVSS VL: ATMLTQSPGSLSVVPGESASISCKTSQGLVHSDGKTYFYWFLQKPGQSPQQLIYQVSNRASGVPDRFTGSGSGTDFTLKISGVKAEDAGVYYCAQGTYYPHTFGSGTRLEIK" experimental_result=0.0351

Asked: For 5E5VH5VH12_VLWT IgG1 (antibody, V domains shown) VH: QLQLVESGGGLVQPGGSLRLSCAASGFTFGTYSMRWVRQVPRKALEWVSSIHTDGGGTAYRDSVKGRFTISRDNAKNTLYLQMNNLKPEDTAIYYCVIHGYSDWGQGTQVTVSS VL: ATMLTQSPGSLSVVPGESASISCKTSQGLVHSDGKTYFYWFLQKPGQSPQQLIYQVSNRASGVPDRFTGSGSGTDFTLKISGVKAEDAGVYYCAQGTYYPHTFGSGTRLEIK , write its Kd.
Given back: 4.96
